The reader will find IC50 measurements below, all made with Vascular endothelial growth factor receptor 2 (Homo sapiens).
Sequence (P35968 whole entry): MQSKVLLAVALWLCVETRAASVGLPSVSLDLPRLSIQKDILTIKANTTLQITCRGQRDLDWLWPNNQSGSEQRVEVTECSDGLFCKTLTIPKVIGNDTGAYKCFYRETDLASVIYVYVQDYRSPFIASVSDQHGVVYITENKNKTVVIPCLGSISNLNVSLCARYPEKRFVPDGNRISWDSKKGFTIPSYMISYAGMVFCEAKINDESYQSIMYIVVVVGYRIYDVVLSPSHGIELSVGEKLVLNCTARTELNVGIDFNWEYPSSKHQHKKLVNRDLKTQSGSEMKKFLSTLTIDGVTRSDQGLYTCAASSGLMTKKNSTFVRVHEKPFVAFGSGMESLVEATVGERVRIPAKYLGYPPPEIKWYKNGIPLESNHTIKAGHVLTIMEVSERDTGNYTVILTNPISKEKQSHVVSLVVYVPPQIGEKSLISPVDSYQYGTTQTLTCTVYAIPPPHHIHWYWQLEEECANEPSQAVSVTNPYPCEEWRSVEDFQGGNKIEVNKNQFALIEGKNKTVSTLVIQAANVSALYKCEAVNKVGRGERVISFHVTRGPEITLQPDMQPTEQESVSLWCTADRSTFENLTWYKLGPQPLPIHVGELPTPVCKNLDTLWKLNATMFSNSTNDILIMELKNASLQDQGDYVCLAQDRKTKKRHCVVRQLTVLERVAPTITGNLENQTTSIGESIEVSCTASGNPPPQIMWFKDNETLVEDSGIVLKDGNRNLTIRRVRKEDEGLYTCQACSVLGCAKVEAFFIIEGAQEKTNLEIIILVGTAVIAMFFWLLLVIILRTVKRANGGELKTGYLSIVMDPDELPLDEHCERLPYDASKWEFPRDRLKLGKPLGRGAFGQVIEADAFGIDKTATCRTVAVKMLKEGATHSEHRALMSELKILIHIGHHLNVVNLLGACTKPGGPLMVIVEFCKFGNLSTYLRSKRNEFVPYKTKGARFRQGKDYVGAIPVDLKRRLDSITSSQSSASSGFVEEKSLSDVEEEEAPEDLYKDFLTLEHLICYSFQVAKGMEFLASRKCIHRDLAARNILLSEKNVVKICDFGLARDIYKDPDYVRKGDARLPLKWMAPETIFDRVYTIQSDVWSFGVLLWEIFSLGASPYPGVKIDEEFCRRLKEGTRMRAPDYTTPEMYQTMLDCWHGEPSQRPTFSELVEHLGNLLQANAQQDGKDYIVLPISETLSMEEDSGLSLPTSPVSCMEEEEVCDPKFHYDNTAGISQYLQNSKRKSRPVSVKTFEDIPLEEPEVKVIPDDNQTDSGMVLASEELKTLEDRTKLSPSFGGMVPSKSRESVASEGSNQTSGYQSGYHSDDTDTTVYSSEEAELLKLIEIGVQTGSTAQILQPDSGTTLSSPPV
Reported property: IC50 (nM)

| Smiles record | Unit name | IC50 |
| --- | --- | --- |
| CC(C)(C#N)Oc1cccc(C(=O)Nc2cc(Nc3ccc4nc(NC(=O)C5CC5)sc4n3)ccc2F)c1Cl | nM | 64 |

P: CC(=O)Nc1nc2cnc(Nc3cc(NC(=O)c4cccc(C5(C#N)CC5)c4Cl)ccc3C)nc2s1
Q: CC(=O)Nc1nc2cnc(Nc3cc(NC(=O)c4cccc(OC(C)(C)C#N)c4)ccc3C)nc2s1
Ask: Which is greater in IC50, the first item P or the second item Q ? Your choice should be expressed through its label.
Result: Q

Data origin, for the record: ChEMBL document CHEMBL2203033
